Tested on: Naive CD4+ T cells
Experiment Summary: Naive CD4+ T cells under Th17 cell polarizing conditions
Format: cell-based
Assay Conditions: among Th17 differentiating cells, 4 days; FIG. 37
Outcome Measure: number of CD4+ IL-10-secreting T cells

Compound | Result
C[C@]12CC[C@H](O)CC1=CCC1C2CC[C@@]2(C)C1CC[C@]21O[C@H]1CO (stereo partly shown) [BNN-124] | significant increase
C[C@]12CC[C@H](O)CC1=CC[C@@H]1[C@@H]2CC[C@@]2(C)[C@H]1CC[C@@]21OC1CO (stereo partly drawn) [BNN-93, 3β,21-dihydroxy-17α,20-epoxy-5-pregnene] | significant increase
C[C@]12CC[C@H](O)CC1=CC[C@@H]1[C@@H]2CC[C@@]2(C)[C@H]1CC[C@@]21CO1 [BNN-50] | significant increase
C[C@]12CC[C@H](O)CC1=CC[C@@H]1[C@@H]2CC[C@]2(C)C(=O)CC[C@@H]12 [DHEA, dehydroepiandrosterone] | significant increase
